# Protocol Text: Plasma stability assay, rat plasma
# Format: in vitro ADME
# Protocol Conditions: 37° C., 10 μM, 1440 min
The label t is reserved for % remaining at time point in minutes, 1440 min strictly under 20%; f covers values equal to or above it.

[[record]]
compound = "C=C1CC[C@@]2(O)C3Cc4ccc(OCOC(=O)OCCCCCCCCCCCC)c5c4[C@@]2(CCN3CC2CC2)[C@H]1O5 [Compound 24]"
category_label = "t"

[[record]]
compound = "C=C1CC[C@@]2(O)C3Cc4ccc(OC(=O)OCCCCCCCCCCCC)c5c4[C@@]2(CCN3CC2CC2)[C@H]1O5 [Compound 6]"
category_label = "t"

[[record]]
compound = "C=C1CC[C@@]2(O)C3Cc4ccc(OCOC(=O)OCCCCCCCCCCCCCC)c5c4[C@@]2(CCN3CC2CC2)[C@H]1O5 [Compound 25]"
category_label = "f"

[[record]]
compound = "CCCCCCCCCCCCCC(=O)Oc1ccc2c3c1O[C@H]1C(=O)CC[C@@]4(O)C(C2)N(CC2CC2)CC[C@]314 [Compound 57]"
category_label = "t"

[[record]]
compound = "C=C1CC[C@@]2(O)C3Cc4ccc(OC(=O)OCCCCCCCCCC)c5c4[C@@]2(CCN3CC2CC2)[C@H]1O5 [Compound 18]"
category_label = "t"

[[record]]
compound = "C=C1CC[C@@]2(O)C3Cc4ccc(OC(=O)OCCCCCCCCCCCCC)c5c4[C@@]2(CCN3CC2CC2)[C@H]1O5 [Compound 30]"
category_label = "f"

[[record]]
compound = "CCCCCCCCCCCCCCCCOC(=O)Oc1ccc2c3c1O[C@H]1C(=O)CC[C@@]4(O)C(C2)N(CC2CC2)CC[C@]314 [Compound 21]"
category_label = "f"

[[record]]
compound = "CCCCCCCCOC(=O)Oc1ccc2c3c1O[C@H]1C(=O)CC[C@@]4(O)C(C2)N(CC2CC2)CC[C@]314 [Compound 23]"
category_label = "t"

[[record]]
compound = "CCCCCCCCCCCCCCCC(=O)Oc1ccc2c3c1O[C@H]1C(=O)CC[C@@]4(O)C(C2)N(CC2CC2)CC[C@]314 [Compound 55]"
category_label = "t"

[[record]]
compound = "C=C1CC[C@@]2(O)C3Cc4ccc(OC(=O)OCCCCCCCCCCCCCC)c5c4[C@@]2(CCN3CC2CC2)[C@H]1O5 [Compound 31]"
category_label = "f"

[[record]]
compound = "C=C1CC[C@@]2(O)C3Cc4ccc(OC(=O)CCCCCCCCCCCCCCC)c5c4[C@@]2(CCN3CC2CC2)[C@H]1O5 [Compound 56, reference compound]"
category_label = "t"

[[record]]
compound = "CCCCC/C=C\\C/C=C\\CCCCCCCC(=O)Oc1ccc2c3c1O[C@H]1C(=O)CC[C@@]4(O)C(C2)N(CC2CC2)CC[C@]314 [Compound 53]"
category_label = "t"


====

# Protocol Text: Plasma stability assay, dog plasma
# Format: in vitro ADME
# Protocol Conditions: 37° C., 2 μM, 480 min (as headed)
Outcome Measure: % remaining at time point in minutes, 480 min

[[record]]
molecule = "C=C1CC[C@@]2(O)C3Cc4ccc(OC(=O)CCCCCCC/C=C/CCCCCCCC)c5c4[C@@]2(CCN3CC2CC2)[C@H]1O5"
observed = "90.1%"

[[record]]
molecule = "CCCCCCCCCCCC(=O)OCN1C(=O)CCc2ccc(OCCCCN3CCN(c4cccc(Cl)c4Cl)CC3)cc21 [Aripiprazole lauroxil, reference compound]"
observed = "78.6%"

[[record]]
molecule = "C=C1CC[C@@]2(O)C3Cc4ccc(OCOC(=O)OCCCCCCCCCCCC)c5c4[C@@]2(CCN3CC2CC2)[C@H]1O5"
observed = "115.7%"

[[record]]
molecule = "CCCCCCCCCCCCCCCC(=O)OC1CCCn2c1nc(C)c(CCN1CCC(c3noc4cc(F)ccc34)CC1)c2=O (centres unmarked) [Paliperidone palmitate, reference compound]"
observed = "95.9%"

[[record]]
molecule = "C=C1CC[C@@]2(O)C3Cc4ccc(OC(=O)OCCCCCCCCCCCC)c5c4[C@@]2(CCN3CC2CC2)[C@H]1O5"
observed = "107.2%"

